# credit: paper PMC4388676

# TESTED_SYSTEM: T1, KCTD5^BTB (UniProt Q9NXV2 44-145)
# T1 construct: KCTD5, folded BTB domain, residues 44-145; also called BTB of the pentameric KCTD5; pentameric KCTD5^BTB; source: recombinant from the pET28/KCTD5^BTB plasmid, expressed and purified as elsewhere reported [33, 34]
# T1 sequence (Q9NXV2 44-145): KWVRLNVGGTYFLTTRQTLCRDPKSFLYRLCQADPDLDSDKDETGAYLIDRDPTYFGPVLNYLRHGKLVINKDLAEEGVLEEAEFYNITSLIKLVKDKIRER
# TEST_NAME: fluorescence polarisation; 1 uM FITC-Cul3^49-68LA, KCTD5^BTB over 0.1 nM to 5 uM; triplicates
# ASSAY_SETUP: both partners purified
Bridge positions count the residues as written; N and C are the ends. Square brackets hold non-standard residues; d marks the D form. * marks the point of attachment. FITC = O=C1OC2(c3ccc(O)cc3Oc3cc(O)ccc32)c2ccc(NC(=S)*)cc21; S5 = C=CCCC[C@](C)(N)C(=O)O
READOUT_NAME: pKd
To interpret pKd, take it as minus log10 of a concentration measured in moles per litre.

Record request: pKd value, item {FITC}-NSGLSFEE[S5]YRN[S5]YTMVLHK-NH2 (staple 9-13) [FITC-Cul3^49-68LA]
7.01
